# Tested on: breast cancer cell line (MCF-7)
# Assay Name: In vitro cytotoxicity, MTT assay, 48 h continuous drug exposure
# Type: cell-based, human
# Settings: MCF-7 cells, 48 h exposure
pIC50: −log10 of the molar value.
Property: pIC50

Molecule: COc1cccc2c1C(=O)c1c(O)c3c(c(O)c1C2=O)C[C@@](O)(C(=O)CO)C[C@@H]3O[C@H]1C[C@H](N)[C@H](O)[C@H](C)O1
Measured Number: 5.80

====

# Tested on: lung cancer cell line (A549)
# Assay Name: In vitro cytotoxicity, MTT assay, 48 h continuous drug exposure
# Assay type: cell-based, human
# Settings: Homo sapiens, A549 cells, 48 h exposure
Overview of reported IC50 across a group of molecules:

Molecule: O=C(c1nc(-c2ccc(C(F)(F)F)cc2)n2ccccc12)N1CCNCC1
IC50: > 100 µM

Molecule: COc1ccc(-c2nc(C(=O)N3CCNCC3)c3ccccn23)cc1
IC50: > 100 µM

Molecule: O=C(c1nc(-c2ccccc2)n2ccccc12)N1CCNCC1
IC50: > 100 µM

====

# Test system: mouse melanoma cancer cell line (B16)
# Assay Name: In vitro cytotoxicity, MTT assay, 48 h continuous drug exposure
# Assay type: cell-based
# Settings: Mus musculus, B16 cells, 48 h exposure
Measured IC50 values are reported for all entries that follow.
Property: IC50

Molecule: COc1ccc(-c2nc(C(=O)N3CCNCC3)c3ccccn23)cc1
Result: > 100 µM
//
Molecule: O=C(c1nc(-c2ccccc2)n2ccccc12)N1CCNCC1
Result: > 100 µM
//
Molecule: O=C(c1nc(-c2ccc(C(F)(F)F)cc2)n2ccccc12)N1CCNCC1
Result: > 100 µM
